- assay method text: amyloid nucleation score (Sup35N fusion, yeast selection) (log enrichment); library NNK2; higher = more nucleation; inactive = no reads after selection;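 note: zero at mode of non-aggregating sequences after 7 days selection at 30°C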
Catalogue of substances with associated amyloid nucleation score
Please respond with just the number, no unit label.

{"columns": ["substance", "amyloid nucleation score"],
 "data": [
  ["VTRRLYSRFIGTKEISAVIC", 0.119],
  ["FLRVRP", -0.719],
  ["HFSDVSSEVGVIHCSMLGSN", -0.107],
  ["WLSTKWIFFISNVKFFLYLR", -0.06],
  ["YVSEQTHPMVIMYHFLRQHQ", -0.181],
  ["PIDKSVAVLDRREMSDQRIN", -0.753]
]}

Next item in the queue.
Param item = ELSGGQTLLCRSVYLDVDRV ; retrieve measured amyloid nucleation score.
3.74
